details: in water, 293.15 K
measured.metric: solubility (mole fraction)
Respond using a number only.

Sample `COc1ccc2c(c1)c(CC(=O)O)c(C)n2C(=O)c1ccc(Cl)cc1` — what was its solubility (mole fraction)?
4.73e-08

====

conditions: in water, 308.15 K
measured.metric: solubility (mole fraction)
Please reply with the value in numeric form only.

I would be grateful if you could share the reported solubility (mole fraction) for `COc1ccc2c(c1)c(CC(=O)O)c(C)n2C(=O)c1ccc(Cl)cc1` .
5.58e-08

====

conditions: in water, 313.15 K
measured.metric: solubility (mole fraction)
Give only the figure.

Need solubility (mole fraction), item `COc1ccc2c(c1)c(CC(=O)O)c(C)n2C(=O)c1ccc(Cl)cc1`
5.85e-08
